# System tested: Cytochrome P450 3A4 (Homo sapiens)
# Test details: Cytochrome panel assay with activity outcomes
# Measurement parameters: recombinant CYP, pro-luciferin dealkylation, luminescence, p450-cyp3a4; series mostly up to 57.1 µM
# Protocol: The P450 gene superfamily is involved in the metabolism and clearance of xenobiotics. This assay used various human CYP P450 isozymes to measure the dealkylation of various pro-luciferin substrates to luciferin. The luciferin is then measured by luminescence after the addition of a luciferase detection reagent. […] Inhibitors and some substrates limit the production of luciferin, and decrease measured luminescence. […] 8, Detection, 1 sec, ViewLux luminescent read […]
In all, about 16,000 compounds went through this assay and about 5,100 (32%) were called active. Inconclusive results (about 25%) are left out. Calls come from the whole dose curve; as a rule, active = well fitted curve in the direction sought with a large enough effect; inconclusive = small, poorly fitted or top-dose-only effect, or effect the other way; inactive = no such curve, though single readings can be large or run the other way. The list shows a part of the results.
# valid calls are True (active), False (inactive); nothing else

Structure smiles string: Cc1ccc(-n2cc(C(=O)c3ccc4ccccc4c3O)cn2)cc1
Assigned label: False
//
Structure smiles string: CCNc1ncc2nc(C)c(=O)n(Cc3cccs3)c2n1
Assigned label: True
//
Structure smiles string: CC(=O)NCCNc1ncnc2ccc(-c3ccc(C(=O)N(C)C)cc3)cc12
Assigned label: False
//
Structure smiles string: Cc1ccc(S(=O)(=O)n2c3ccccc3c3nnc(C(=O)c4ccccc4)nc32)cc1
Assigned label: True
//
Structure smiles string: COCCNc1ncnc2ccc(-c3ccc(N(C)C)cc3)cc12
Assigned label: True
//
Structure smiles string: O=C(Nn1cnc2ccccc2c1=O)c1ccc(F)cc1Cl
Assigned label: False

Recorded test outcome, item "CSc1nncc(-c2ccc(F)c(F)c2)n1"
False
